These data points were gathered from the RNAGym collection of RNA variant scans (doi:10.1093/molbev/msab373).

B1: Azoarcus group I ribozyme (parent)
chain: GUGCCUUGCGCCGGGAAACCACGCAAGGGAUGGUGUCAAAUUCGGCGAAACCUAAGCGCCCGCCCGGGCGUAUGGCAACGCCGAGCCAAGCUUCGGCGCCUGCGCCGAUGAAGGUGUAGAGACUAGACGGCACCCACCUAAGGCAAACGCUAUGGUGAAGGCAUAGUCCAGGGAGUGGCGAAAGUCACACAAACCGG

# Variants of: B1
# EXPERIMENT: reverse-splicing fitness (ratio to wild type); higher = more active; in vitro selection; Mg2+ level not given
Decide using reverse-splicing fitness: a value greater than or equal to 0.007 is 1, a smaller one is -1.

Completed entries (count: 5):
[[record]]
variant_id = "C82A A145U C150G C169G U176A"
label_class = 1

[[record]]
variant_id = "C82G A120U A145G C150G U176A"
label_class = 1

[[record]]
variant_id = "C82A A111G A120U C169G"
label_class = -1

[[record]]
variant_id = "C82G A111G A120G A145G C150U C169G U176C"
label_class = 1

[[record]]
variant_id = "C82A A111U A120G A145G C150G C169A"
label_class = 1


Prompt: I'd appreciate it if you could say whether C82U A111U A120U A145G C150G C169G U176G has reverse-splicing fitness at least equal to 0.007.
Completion: -1
